Assign normalized growth to each entry below.
experiment: chemical genetic growth profiling, strain panel (AID 1159580);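 also: tested at 20 µM; growth read once vehicle control cultures reached saturation at 30 °C; 1 = growth at the plate median or of vehicle wells; lower values mean less growth of the strain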; conditions: S. cerevisiae deletion strains, growth OD, locus YNL250W, strain rad50, active compounds read low
Among all 5,500 compounds or so, about 2,000 (36%) were called active. Roughly 18% stayed inconclusive and do not appear here. The list shows a part of the results.
Hey, just send me the number, nothing else.

# molecule COc1ccc2ccc(=O)oc2c1CC=C(C)C ; its normalized growth = 0.918

# molecule COc1cc2ccc(=O)oc2cc1O ; its normalized growth = 1.01

# molecule CC1(C)C[C@@H]2C(=O)CC[C@H]3O[C@]3(C)CC[C@H]21 ; its normalized growth = 0.998

# molecule COc1cc2ccc(=O)oc2c(O)c1O ; its normalized growth = 1

# molecule CC(C)=CCOc1cc2oc(=O)ccc2cc1O ; its normalized growth = 1

# molecule CC(=O)O[C@@H]1CC2C(C)(C)C(=O)[C@@H]3O[C@@H]3[C@]2(C)C2CC[C@]3(C)C(=CC(=O)O[C@H]3c3ccoc3)[C@@]21C (some centres not stated) ; its normalized growth = 1.01

# molecule COc1cc2ccc(=O)oc2c(OC)c1OC ; its normalized growth = 1.03

====

Assign normalized growth to each entry below.
experiment: chemical genetic growth profiling, strain panel (AID 1159580);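 also: tested at 20 µM; growth read once vehicle control cultures reached saturation at 30 °C; 1 = growth at the plate median or of vehicle wells; lower values mean less growth of the strain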; settings: S. cerevisiae deletion strains, growth OD, locus YDR318W, strain mcm21, active compounds read low
Screen size: about 5,500 compounds; about 2,000 (36%) were called active. Inconclusive results (about 18%) are left out. Some of the results follow.
Hey, just send me the number, nothing else.

# molecule COc1c(O)cc(O)cc1O ; its normalized growth = 1

# molecule COP(=S)(OC)SCn1nnc2ccccc2c1=O ; its normalized growth = 0.972

# molecule Cc1cccc(N(C)C(=S)Oc2ccc3ccccc3c2)c1 ; its normalized growth = 0.982

# molecule COc1cc(O)c(C)c(O)c1 ; its normalized growth = 1.01

# molecule O=C1OC(=O)C2C3CCC(O3)C12 (stereo not drawn) ; its normalized growth = 0.981

# molecule C[C@]12CCC3C(CC[C@H]4C[C@@H](O)CC[C@]34C)C1CCC2=O (stereo partly drawn) ; its normalized growth = 0.764

# molecule CCN(CC)CCNC(=O)COc1ccc(OC)cc1 ; its normalized growth = 0.988

# molecule CCCC(=O)Nc1ncnc2c1ncn2C1O[C@@H]2COP(=O)(O)O[C@H]2[C@H]1OC(=O)CCC (stereo partly drawn) ; its normalized growth = 1.02

# molecule C[C@]12CCC3C(CC[C@H]4C[C@@H](Cl)CC[C@]34C)C1CCC2=O (stereo partly drawn) ; its normalized growth = 0.981

# molecule OCCN1CCN(CCCN2c3ccccc3Sc3ccc(Cl)cc32)CC1 ; its normalized growth = 0.966

# molecule CC(C)CCCC(C)C1CCC2C3CCC4CC(=O)CCC4(C)C3CCC12C (stereo not drawn) ; its normalized growth = 1.01

# molecule COc1cc(O)c(C(=O)c2ccccc2)c(OC)c1 ; its normalized growth = 0.956

# molecule Cn1cnc([N+](=O)[O-])c1Sc1ncnc2nc[nH]c12 ; its normalized growth = 0.996

# molecule O=[N+]([O-])/N=C1/NCCN1Cc1ccc(Cl)cc1 ; its normalized growth = 0.984

# molecule CC1=C2CCC3C(CC[C@]4(C)C(=O)CCC34)[C@@]2(C)CCC1=O (stereo partly drawn) ; its normalized growth = 0.941

# molecule COC(=O)C1=CO[C@@H](O[C@@H]2O[C@H](CO)[C@@H](O)[C@H](O)[C@H]2O)[C@@H]2[C@@H](C)[C@@H](O)C[C@H]12 ; its normalized growth = 1.01

# molecule COc1ccc(Cc2nccc3cc(OC)c(OC)cc23)cc1OC ; its normalized growth = 0.976

# molecule COc1c2occc2cc2ccc(=O)oc12 ; its normalized growth = 0.953

# molecule COC(=O)C[C@H]1C(C)(C)[C@@H](OC(C)=O)[C@@H]2CC3C4CC(=O)O[C@@H](c5ccoc5)[C@]4(C)CCC3[C@@]1(C)C2=O (stereo partly drawn) ; its normalized growth = 1.01

# molecule CCOc1ccc(Cc2nccc3cc(OCC)c(OCC)cc23)cc1OCC ; its normalized growth = 0.931

# molecule CCOC(=O)C1=C(C)NC(C)=C(C(=O)OC)C1c1cccc([N+](=O)[O-])c1 (stereo not drawn) ; its normalized growth = 1.02

# molecule CC(C)=CCC1=C(O)c2ccccc2C(=O)C1=O ; its normalized growth = 0.902

# molecule COc1cc2ccc(=O)oc2c2ccoc12 ; its normalized growth = 0.965
